// reported pIC50 for each item listed
- target: canine TRPM8 (Canis lupus familiaris, UniProt Q1A7N1)
- Sequence (Q1A7N1 1-1104): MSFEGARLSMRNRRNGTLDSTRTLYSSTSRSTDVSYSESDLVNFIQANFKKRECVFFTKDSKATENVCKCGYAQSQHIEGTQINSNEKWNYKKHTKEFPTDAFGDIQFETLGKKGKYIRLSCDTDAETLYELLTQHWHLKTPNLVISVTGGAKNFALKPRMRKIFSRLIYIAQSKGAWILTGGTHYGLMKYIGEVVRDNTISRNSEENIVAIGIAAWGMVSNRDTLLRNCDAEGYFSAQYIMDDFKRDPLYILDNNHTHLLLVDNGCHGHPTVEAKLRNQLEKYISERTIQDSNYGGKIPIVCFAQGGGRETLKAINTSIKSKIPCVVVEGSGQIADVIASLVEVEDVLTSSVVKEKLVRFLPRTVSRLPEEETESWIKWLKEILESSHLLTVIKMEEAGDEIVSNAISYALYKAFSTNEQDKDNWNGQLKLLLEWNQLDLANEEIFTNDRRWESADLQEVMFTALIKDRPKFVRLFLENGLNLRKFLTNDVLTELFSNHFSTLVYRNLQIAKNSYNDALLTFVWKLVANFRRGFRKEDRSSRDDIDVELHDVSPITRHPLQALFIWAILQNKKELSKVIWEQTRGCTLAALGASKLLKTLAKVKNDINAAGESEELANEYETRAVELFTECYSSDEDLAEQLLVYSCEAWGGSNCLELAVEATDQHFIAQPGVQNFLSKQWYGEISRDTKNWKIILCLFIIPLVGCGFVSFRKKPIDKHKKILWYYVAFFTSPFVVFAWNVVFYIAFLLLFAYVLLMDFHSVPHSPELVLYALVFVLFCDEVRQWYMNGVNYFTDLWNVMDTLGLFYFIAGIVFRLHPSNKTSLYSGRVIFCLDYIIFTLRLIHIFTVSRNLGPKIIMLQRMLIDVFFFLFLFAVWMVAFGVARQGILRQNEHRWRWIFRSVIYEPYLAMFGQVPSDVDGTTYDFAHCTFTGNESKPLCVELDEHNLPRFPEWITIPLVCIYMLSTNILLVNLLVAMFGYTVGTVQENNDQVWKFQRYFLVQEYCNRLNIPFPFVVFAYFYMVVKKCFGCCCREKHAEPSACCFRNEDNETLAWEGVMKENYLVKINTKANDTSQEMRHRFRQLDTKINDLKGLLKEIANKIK
- assay info: In Vitro Canine TRPM8 Functional Assay (Ca2+ fluorescence, icilin activation)
- conditions used: HEK293 cells stably expressing canine TRPM8; icilin activation; Ca2+ fluorescence
pIC50: −log10 of the molar value.
quantity kind: pIC50

> print(dat)
                                    compound                                    target  observed
 1  O=C(O)c1cccc(C2CCCN2C(=O)C(Nc2ccccc2F)c2cc3ccccc3s2)c1 (stereo not drawn)  canine TRPM8 (Canis lupus familiaris, UniProt Q1A7N1)      7.11
 2  O=C(C(c1ccc(C(F)(F)F)cc1)N1CCCc2ccccc21)N1Cc2ccccc2C1 (stereo not drawn)  canine TRPM8 (Canis lupus familiaris, UniProt Q1A7N1)      6.87
 3  O=C(C(Nc1cc(F)ccc1F)c1ccc(Cl)cc1)N1Cc2ccccc2C1 (stereo not drawn)  canine TRPM8 (Canis lupus familiaris, UniProt Q1A7N1)      7.34
 4  COc1ccccc1C1CCCN1C(=O)C(Nc1c(F)cccc1F)c1ccc(Cl)cc1 (stereo not drawn)  canine TRPM8 (Canis lupus familiaris, UniProt Q1A7N1)      7.80
 5  O=C(C(Nc1c(F)cccc1F)c1cc2ccccc2s1)N1CCCC1c1ccccc1F (stereo not drawn)  canine TRPM8 (Canis lupus familiaris, UniProt Q1A7N1)      8.10
 6  COc1ccccc1C1CCCN1C(=O)C(Nc1ccccc1F)c1ccc(Br)cc1 (racemic) [Cpd 90]  canine TRPM8 (Canis lupus familiaris, UniProt Q1A7N1)      8.15
 7  O=C(C(Nc1ccccc1F)c1ccc(C(F)(F)F)cc1)N1CCCC1c1cncc(Br)c1 (stereo not drawn) [Cpd 344]  canine TRPM8 (Canis lupus familiaris, UniProt Q1A7N1)      7.36
 8  COc1ccc(NC(C(=O)N2CCCC2c2ccccc2F)c2ccc(Cl)cc2)cc1 (stereo not drawn)  canine TRPM8 (Canis lupus familiaris, UniProt Q1A7N1)      7.00
 9  O=C(C(Nc1ccccc1F)c1ccc(-n2ccnc2)cc1)N1CCCC1c1ccccc1Cl (stereo not drawn)  canine TRPM8 (Canis lupus familiaris, UniProt Q1A7N1)      7.55
10  COc1ccc(NC(C(=O)N2CCCC2c2ccccc2OC)c2ccc(Cl)cc2)cc1 (stereo not drawn)  canine TRPM8 (Canis lupus familiaris, UniProt Q1A7N1)      6.92
11  O=C(C(Nc1cccc(F)c1F)c1ccc(Cl)cc1)N1CCCC1c1ccccc1F (single isomer, unassigned) [Cpd 164]  canine TRPM8 (Canis lupus familiaris, UniProt Q1A7N1)      7.59
12  O=C(C(Nc1ccccc1F)c1ccc(Br)cc1)N1CCCC1c1ccccc1F (mixture of isomers)  canine TRPM8 (Canis lupus familiaris, UniProt Q1A7N1)      8.05
13  O=C(C(Nc1ccccc1F)c1ccc(Cl)cc1)N1Cc2cccc(F)c2C1 (stereo not drawn)  canine TRPM8 (Canis lupus familiaris, UniProt Q1A7N1)      6.90
14  O=C(C(Nc1ccccc1F)c1cc2ccccc2s1)N1CCCC1c1ccncc1 (single isomer, unassigned) [Cpd 322]  canine TRPM8 (Canis lupus familiaris, UniProt Q1A7N1)      8.10
15  O=C(C(Nc1ccccc1)c1ccc(C(F)(F)F)cc1)N1CCCC1c1ccccc1F (single isomer, unassigned) [Cpd 46]  canine TRPM8 (Canis lupus familiaris, UniProt Q1A7N1)      8.13
16  O=C(C(Nc1ccccc1F)c1cc2ccccc2s1)N1CCCC1c1ccccc1F (stereo not drawn) [Cpd 225]  canine TRPM8 (Canis lupus familiaris, UniProt Q1A7N1)      8.15
17  O=C(C(c1ccc(C(F)(F)F)cc1)N1CCCc2ccccc21)N1CCCC1c1ccccc1 (stereo not drawn)  canine TRPM8 (Canis lupus familiaris, UniProt Q1A7N1)      6.37
18  O=C(C(Nc1ccccc1F)c1ccc(C(F)(F)F)cc1)N1CCCC1c1cccc(F)c1 (single isomer, unassigned) [Cpd 133]  canine TRPM8 (Canis lupus familiaris, UniProt Q1A7N1)      7.68
19  O=C(C(Nc1cccc(F)c1F)c1ccc(Cl)cc1)N1Cc2ccccc2C1 (stereo not drawn)  canine TRPM8 (Canis lupus familiaris, UniProt Q1A7N1)      6.85
20  O=C(C(Nc1ccccc1)c1ccc(Br)cc1)N1CCCC1c1ccccc1 (stereo not drawn)  canine TRPM8 (Canis lupus familiaris, UniProt Q1A7N1)      7.64
21  CN(C)c1ccc(C2CCCN2C(=O)C(Nc2c(F)cccc2F)c2ccc(Cl)cc2)cc1 (stereo not drawn)  canine TRPM8 (Canis lupus familiaris, UniProt Q1A7N1)      6.98
22  CC(C)(C)c1ccc(C(Nc2ccccc2F)C(=O)N2CCC[C@H]2c2ccccc2F)cn1 (mixture of isomers) [Cpd 355]  canine TRPM8 (Canis lupus familiaris, UniProt Q1A7N1)      8.30
23  O=C(C(Cc1ccccc1F)c1ccc(C(F)(F)F)cc1)N1Cc2ccccc2C1 (stereo not drawn)  canine TRPM8 (Canis lupus familiaris, UniProt Q1A7N1)      7.26
24  O=C(C(Nc1ccccc1F)c1ccc(Br)cc1)N1CCc2ccccc2C1 (stereo not drawn)  canine TRPM8 (Canis lupus familiaris, UniProt Q1A7N1)      6.75
25  O=C(C(Nc1ccccc1F)c1ccc(-c2ccccn2)cc1)N1CCCC1c1ccccc1Cl (single isomer, unassigned) [Cpd 339]  canine TRPM8 (Canis lupus familiaris, UniProt Q1A7N1)      7.57
26  O=C(C(Nc1cccc(F)c1F)c1ccc(Cl)cc1)N1CCCC1c1ccccc1 (stereo not drawn)  canine TRPM8 (Canis lupus familiaris, UniProt Q1A7N1)      7.46
27  O=C(C(Nc1ccccc1F)c1ccc(-n2ccnc2)cc1)N1CCCC1c1ccccc1F (stereo not drawn)  canine TRPM8 (Canis lupus familiaris, UniProt Q1A7N1)      7.46
28  O=C(C(Nc1ccccc1F)c1ccc(Cl)cc1)N1CCCC1c1ccccc1F (stereo not drawn) [Cpd 115]  canine TRPM8 (Canis lupus familiaris, UniProt Q1A7N1)      8.00
29  O=C([C@@H](Nc1ccccc1F)c1ccc(C(F)(F)F)cc1)N1CCC[C@H]1c1ccccc1F (single isomer, unassigned)  canine TRPM8 (Canis lupus familiaris, UniProt Q1A7N1)      7.21
30  O=C(C(Nc1ccccc1F)c1ccc(C(F)(F)F)cc1)N1CCCC1c1ccncc1 (stereo not drawn)  canine TRPM8 (Canis lupus familiaris, UniProt Q1A7N1)      7.72
31  O=C(C(c1ccc(C(F)(F)F)cc1)N1CCc2ccccc21)N1Cc2ccccc2C1 (stereo not drawn)  canine TRPM8 (Canis lupus familiaris, UniProt Q1A7N1)      6.98
32  O=C(C(Nc1ccccc1)c1ccc(C(F)(F)F)cc1)N1CCCC1c1ccccc1Br (stereo not drawn)  canine TRPM8 (Canis lupus familiaris, UniProt Q1A7N1)      7.39
33  O=C(C(Nc1ccccc1F)c1ccc(Br)cc1)N1CCCC1c1ccccc1Cl (stereo not drawn)  canine TRPM8 (Canis lupus familiaris, UniProt Q1A7N1)      7.70
